# assay target: Voltage-gated inwardly rectifying potassium channel KCNH2 (Homo sapiens, UniProt Q12809); note: assay procedure not described here
# Sequence (Q12809 whole entry): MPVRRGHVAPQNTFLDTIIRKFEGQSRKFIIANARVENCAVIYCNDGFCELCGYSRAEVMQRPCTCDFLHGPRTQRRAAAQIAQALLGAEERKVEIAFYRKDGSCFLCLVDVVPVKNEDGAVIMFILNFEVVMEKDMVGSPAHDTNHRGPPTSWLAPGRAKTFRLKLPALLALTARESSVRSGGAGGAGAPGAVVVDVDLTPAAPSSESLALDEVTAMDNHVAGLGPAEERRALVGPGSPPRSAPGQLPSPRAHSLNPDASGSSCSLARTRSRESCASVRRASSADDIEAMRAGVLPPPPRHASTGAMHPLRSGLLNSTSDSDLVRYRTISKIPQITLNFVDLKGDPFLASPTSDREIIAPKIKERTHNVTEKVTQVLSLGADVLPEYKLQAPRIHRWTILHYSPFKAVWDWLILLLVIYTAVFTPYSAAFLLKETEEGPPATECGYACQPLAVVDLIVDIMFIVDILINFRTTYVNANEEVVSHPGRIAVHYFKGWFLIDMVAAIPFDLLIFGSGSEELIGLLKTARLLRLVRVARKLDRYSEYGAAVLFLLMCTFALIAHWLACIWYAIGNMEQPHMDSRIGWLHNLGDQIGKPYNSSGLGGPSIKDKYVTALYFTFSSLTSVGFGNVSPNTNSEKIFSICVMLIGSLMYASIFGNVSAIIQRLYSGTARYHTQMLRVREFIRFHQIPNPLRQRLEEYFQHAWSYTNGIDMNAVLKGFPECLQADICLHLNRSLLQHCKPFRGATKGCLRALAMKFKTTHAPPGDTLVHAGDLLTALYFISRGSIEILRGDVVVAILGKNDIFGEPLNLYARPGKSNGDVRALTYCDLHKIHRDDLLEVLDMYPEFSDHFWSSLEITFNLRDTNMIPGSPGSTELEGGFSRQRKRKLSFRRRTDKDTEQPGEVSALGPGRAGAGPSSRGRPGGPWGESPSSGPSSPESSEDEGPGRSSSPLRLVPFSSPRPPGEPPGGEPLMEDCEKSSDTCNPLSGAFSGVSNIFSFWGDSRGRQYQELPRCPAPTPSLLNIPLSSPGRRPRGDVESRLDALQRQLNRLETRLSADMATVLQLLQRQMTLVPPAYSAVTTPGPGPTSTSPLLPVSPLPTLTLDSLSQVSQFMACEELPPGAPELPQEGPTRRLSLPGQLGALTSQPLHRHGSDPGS
# Format: functional
# condition parameters: read-out: AC50
Give AC50 for every item shown.
One number for each entry, in µM.

For orientation, consider the following solved cases.
{"molecule": "CCCCN(CCCC)CCCOC(=O)c1ccc(N)cc1 [BUTACAINE]", "quantitative readout": 5.4}
{"molecule": "COc1c(N2CCNC(C)C2)c(F)cc2c(=O)c(C(=O)O)cn(C3CC3)c12 (stereo not drawn) [GATIFLOXACIN]", "quantitative readout": 24}
{"molecule": "CC(=O)c1ccc2c(c1)N(CCCN1CCN(CCO)CC1)c1ccccc1S2 [ACETOPHENAZINE]", "quantitative readout": 2.3}
{"molecule": "CN1CC[C@]23CCCC[C@H]2[C@H]1Cc1ccc(O)cc13 [LEVORPHANOL]", "quantitative readout": 13.4}
{"molecule": "CN(C)c1ccc(C(=C2C=CC(=[N+](C)C)C=C2)c2ccc(N(C)C)cc2)cc1 [GENTIAN VIOLET]", "quantitative readout": 1}
{"molecule": "CCOc1cc(N)c([N+](=O)[O-])cc1C(=O)NC1CCN(CC2CC=CCC2)CC1 (stereo not drawn) [CINITAPRIDE]", "quantitative readout": 0.31}
{"molecule": "CCCCOc1cc(C(=O)NCCN(CC)CC)c2ccccc2n1 [DIBUCAINE]", "quantitative readout": 1.42}
{"molecule": "Nc1ncnc2c1ncn2[C@@H]1O[C@H](COP(=O)(O)O)[C@@H](O)[C@H]1O [ADENOSINE PHOSPHATE]", "quantitative readout": 15}

Consider now this further molecule.
[in] AC50 for CN(C/C=C/c1ccccc1)Cc1cccc2ccccc12 [NAFTIFINE] ?
[out] 2.02

====

Give AC50 for every item shown.
# assay target: Alpha-2A adrenergic receptor (Homo sapiens); note: assay procedure not described here
# Sequence (P08913 whole entry): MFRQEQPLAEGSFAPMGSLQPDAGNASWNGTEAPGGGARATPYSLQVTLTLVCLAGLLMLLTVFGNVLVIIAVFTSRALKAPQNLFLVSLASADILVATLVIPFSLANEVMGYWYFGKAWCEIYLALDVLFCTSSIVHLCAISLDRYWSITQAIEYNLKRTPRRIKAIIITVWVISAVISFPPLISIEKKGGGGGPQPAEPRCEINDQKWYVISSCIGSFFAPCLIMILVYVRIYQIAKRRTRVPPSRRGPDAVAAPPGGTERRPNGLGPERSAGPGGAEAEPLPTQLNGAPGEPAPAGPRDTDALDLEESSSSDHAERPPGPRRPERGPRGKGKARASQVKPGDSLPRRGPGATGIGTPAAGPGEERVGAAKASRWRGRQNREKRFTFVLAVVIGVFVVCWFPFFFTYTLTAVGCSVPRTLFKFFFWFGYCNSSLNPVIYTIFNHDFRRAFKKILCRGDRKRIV
# Assay type: functional, cell-based

For orientation, consider the following solved cases.
{"molecule": "COc1cc2c(cc1OC)C(=O)C(CC1CCN(Cc3ccccc3)CC1)C2 (stereo not drawn) [DONEPEZIL]", "AC50": "> 10 µM"}
{"molecule": "CCCC(CCC)C(=O)O[C@H]1C[C@H]2CC[C@@H](C1)[N+]2(C)C [ANISOTROPINE]", "AC50": "> 30 µM"}

For each of the molecules below, note its AC50.
1. NS(=O)(=O)c1cc(-c2nnn[nH]2)c(NCc2cccs2)cc1Cl [AZOSEMIDE]
2. COc1ccc2cccc(CCNC(C)=O)c2c1 [AGOMELATINE]

[out]
1. > 30 µM
2. > 30 µM

====

# assay target: Neuronal acetylcholine receptor subunit alpha-4 (Homo sapiens); note: assay procedure not described here
# Sequence (P43681 whole entry): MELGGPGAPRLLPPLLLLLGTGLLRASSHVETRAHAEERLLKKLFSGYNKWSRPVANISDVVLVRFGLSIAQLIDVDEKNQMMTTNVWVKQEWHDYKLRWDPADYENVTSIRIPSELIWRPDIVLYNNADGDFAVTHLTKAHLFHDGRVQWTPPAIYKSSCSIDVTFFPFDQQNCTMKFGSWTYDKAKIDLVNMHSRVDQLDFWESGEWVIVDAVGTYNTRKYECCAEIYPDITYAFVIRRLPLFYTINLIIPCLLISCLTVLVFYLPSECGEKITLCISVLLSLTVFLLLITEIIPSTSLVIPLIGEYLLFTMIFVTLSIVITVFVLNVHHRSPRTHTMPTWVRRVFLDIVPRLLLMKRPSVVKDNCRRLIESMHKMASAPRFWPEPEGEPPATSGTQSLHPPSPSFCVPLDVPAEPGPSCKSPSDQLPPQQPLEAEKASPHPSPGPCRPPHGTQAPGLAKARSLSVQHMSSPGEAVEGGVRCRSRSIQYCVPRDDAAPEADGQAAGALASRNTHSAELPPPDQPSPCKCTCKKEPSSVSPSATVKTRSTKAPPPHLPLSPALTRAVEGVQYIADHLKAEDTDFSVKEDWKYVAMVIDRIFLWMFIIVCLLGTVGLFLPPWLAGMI
Give AC50 for every item shown.

For orientation, consider the following solved cases.
{"compound": "CC[C@H](C)C(=O)O[C@H]1C[C@H](O)C=C2C=C[C@H](C)[C@H](CC[C@@H](O)C[C@@H](O)CC(=O)O)[C@H]21 [PRAVASTATIN]", "result": "> 30 µM"}
{"compound": "CC(=O)O[C@]1(C(C)=O)CC[C@H]2[C@@H]3C[C@H](C)C4=CC(=O)CC[C@]4(C)[C@H]3CC[C@@]21C [MEDROXYPROGESTERONE ACETATE]", "result": "> 30 µM"}
{"compound": "CN(C)[C@@H]1C(O)=C(C(N)=O)C(=O)[C@@]2(O)C(O)=C3C(=O)c4c(O)ccc(Cl)c4[C@@H](O)[C@H]3C[C@@H]12 [DEMECLOCYCLINE]", "result": "> 10 µM"}

[in] AC50 for NC(CO)C(=O)NNCc1ccc(O)c(O)c1O (centres undefined) [BENSERAZIDE] ?
[out] > 10 µM

====

# assay target: Progesterone receptor (Homo sapiens, UniProt P06401); note: assay procedure not described here
# Sequence (P06401 whole entry): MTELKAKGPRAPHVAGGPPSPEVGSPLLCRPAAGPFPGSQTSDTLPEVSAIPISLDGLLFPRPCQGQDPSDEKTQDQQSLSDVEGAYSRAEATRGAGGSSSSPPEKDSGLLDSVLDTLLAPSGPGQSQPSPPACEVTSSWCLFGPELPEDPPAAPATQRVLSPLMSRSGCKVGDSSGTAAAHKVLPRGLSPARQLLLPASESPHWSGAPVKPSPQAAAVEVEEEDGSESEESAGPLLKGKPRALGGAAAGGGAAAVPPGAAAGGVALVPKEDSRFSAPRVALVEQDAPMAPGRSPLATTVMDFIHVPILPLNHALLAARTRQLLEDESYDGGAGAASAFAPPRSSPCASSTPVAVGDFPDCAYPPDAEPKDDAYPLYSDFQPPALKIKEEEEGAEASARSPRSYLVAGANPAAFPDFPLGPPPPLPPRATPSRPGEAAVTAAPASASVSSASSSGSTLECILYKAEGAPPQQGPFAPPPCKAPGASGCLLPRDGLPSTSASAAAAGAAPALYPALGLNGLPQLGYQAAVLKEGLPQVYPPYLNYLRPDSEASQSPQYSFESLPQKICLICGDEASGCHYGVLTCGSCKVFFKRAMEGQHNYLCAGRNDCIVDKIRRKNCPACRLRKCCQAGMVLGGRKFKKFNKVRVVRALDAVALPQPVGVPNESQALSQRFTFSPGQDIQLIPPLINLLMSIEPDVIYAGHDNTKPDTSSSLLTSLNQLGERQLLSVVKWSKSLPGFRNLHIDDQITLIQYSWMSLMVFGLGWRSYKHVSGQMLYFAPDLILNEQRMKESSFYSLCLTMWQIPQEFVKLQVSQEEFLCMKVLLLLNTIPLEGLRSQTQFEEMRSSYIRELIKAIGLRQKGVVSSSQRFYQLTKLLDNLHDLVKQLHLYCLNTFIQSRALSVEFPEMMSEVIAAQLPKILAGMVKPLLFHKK
# Assay type: functional
Give AC50 for every item shown.

For orientation, consider the following solved cases.
{"compound": "CN1C(=O)CC(=O)N(c2ccccc2)c2cc(Cl)ccc21", "result": "> 10 µM"}
{"compound": "CCCCN1CCCCC1C(=O)Nc1c(C)cccc1C (stereo not drawn)", "result": "> 30 µM"}
{"compound": "O=C(O)Cc1cn(-c2ccccc2)nc1-c1ccc(Cl)cc1", "result": "> 30 µM"}

For each of the compounds below, note its AC50.
1. CC1=CC(=O)c2ccccc2C1=O
2. COC(=O)C1=C(C)NC(C)=C(C(=O)OC(C)C)C1c1cccc2nonc12 (stereo not drawn)
3. O=C(C[S+]([O-])C(c1ccccc1)c1ccccc1)NO (stereo not drawn)
4. CN1CC[C@]23CCCC[C@H]2[C@H]1Cc1ccc(O)cc13
5. O=C(O)c1cc(-c2ccc(F)cc2F)ccc1O
6. CCCC(=O)N1CCCN(c2nc(N)c3cc(OC)c(OC)cc3n2)CC1
7. Nc1nc2ccc(OC(F)(F)F)cc2s1

[out]
["> 30 µM", "> 30 µM", "> 30 µM", "> 10 µM", "> 10 µM", "> 30 µM", "> 30 µM"]

For each of the compounds below, note its AC50.
1. NC[C@H]1CC[C@H](C(=O)O)CC1
2. CC(=O)NS(=O)(=O)c1ccc(N)cc1 [SULFACETAMIDE]
3. C1=Cc2cccc(OCC3CNCCO3)c2C1 (stereo not drawn)
4. O=C1CN=C(c2ccccc2)c2cc(Cl)ccc2N1CC(F)(F)F
5. CN1C(=O)COc2c(C(=O)NC3CN4CCC3CC4)cc(Cl)cc21 (stereo not drawn)
6. CN1CCCN=C1COC(=O)C(O)(c1ccccc1)C1CCCCC1 (stereo not drawn)
7. C[C@H]1O[C@H](O[C@H]2[C@H](O)[C@@H](O)[C@@H](O[C@H]3[C@H](O)[C@@H](O)C(O)O[C@@H]3CO)O[C@@H]2CO)[C@H](O)[C@@H](O)[C@@H]1N[C@H]1C=C(CO)[C@@H](O)[C@H](O)[C@H]1O (stereo partly drawn)

[out]
1: > 10 µM; 2: > 10 µM; 3: > 30 µM; 4: > 30 µM; 5: > 30 µM; 6: > 10 µM; 7: > 30 µM

For each of the compounds below, note its AC50.
1. CN1CCN(C(=O)OC2c3nccnc3C(=O)N2c2ccc(Cl)cn2)CC1 (stereo not drawn)
2. OCCN1CCN(CCCN2c3ccccc3C=Cc3ccccc32)CC1

[out]
["> 30 µM", "> 30 µM"]

For each of the compounds below, note its AC50.
1. C[N+](C)(C)CCOC(N)=O
2. C#CCN[C@@H]1CCc2ccccc21
3. Cc1ccc(-c2nc3ccc(C)cn3c2CC(=O)N(C)C)cc1
4. CNC(=O)c1cc(Oc2ccc(NC(=O)Nc3ccc(Cl)c(C(F)(F)F)c3)cc2)ccn1
5. CCCCOc1cc(C(=O)NCCN(CC)CC)c2ccccc2n1

[out]
["> 10 µM", "> 30 µM", "> 30 µM", "> 30 µM", "> 10 µM"]

====

# assay target: Glutamate receptor ionotropic, NMDA 1 (Rattus norvegicus); note: assay procedure not described here
measured attribute: AC50

For orientation, consider the following solved cases.
{"molecule": "CN[C@@H]1[C@H](O)[C@H](NC)[C@H]2O[C@@]3(O)C(=O)C[C@@H](C)O[C@H]3O[C@@H]2[C@H]1O [SPECTINOMYCIN]", "measured attribute": "AC50", "result": "> 10 µM"}
{"molecule": "CCCCC(C)(O)C/C=C/[C@H]1[C@H](O)CC(=O)[C@@H]1CCCCCCC(=O)OC (some centres undefined) [MISOPROSTOL]", "measured attribute": "AC50", "result": "> 30 µM"}

For each of the molecules below, note its AC50.
1. NC(CO)C(=O)NNCc1ccc(O)c(O)c1O (centres undefined) [BENSERAZIDE]
2. CCCS(=O)(=O)Nc1ccc(F)c(C(=O)c2c[nH]c3ncc(-c4ccc(Cl)cc4)cc23)c1F [VEMURAFENIB]

[out]
1. > 10 µM
2. > 30 µM
